Assay: Stability in dog liver microsomes assessed as half life at 1 uM measured upto 60 mins in presence of NADPH by LC-MS/MS analysis
Type: ADME, Canis lupus familiaris, Microsome
VALUE KIND: half-life at 1 µM (h)
Enter your answer as a number in h; do not include the unit.

Quick note, half-life at 1 µM for N#Cc1cc(-c2ccc(C(=O)O)c(O)c2)c2oc(F)cc2c1 landed at 21.1

----------
Biological target: Cytochrome P450 1A2 (Homo sapiens)
Sequence (P05177 whole entry): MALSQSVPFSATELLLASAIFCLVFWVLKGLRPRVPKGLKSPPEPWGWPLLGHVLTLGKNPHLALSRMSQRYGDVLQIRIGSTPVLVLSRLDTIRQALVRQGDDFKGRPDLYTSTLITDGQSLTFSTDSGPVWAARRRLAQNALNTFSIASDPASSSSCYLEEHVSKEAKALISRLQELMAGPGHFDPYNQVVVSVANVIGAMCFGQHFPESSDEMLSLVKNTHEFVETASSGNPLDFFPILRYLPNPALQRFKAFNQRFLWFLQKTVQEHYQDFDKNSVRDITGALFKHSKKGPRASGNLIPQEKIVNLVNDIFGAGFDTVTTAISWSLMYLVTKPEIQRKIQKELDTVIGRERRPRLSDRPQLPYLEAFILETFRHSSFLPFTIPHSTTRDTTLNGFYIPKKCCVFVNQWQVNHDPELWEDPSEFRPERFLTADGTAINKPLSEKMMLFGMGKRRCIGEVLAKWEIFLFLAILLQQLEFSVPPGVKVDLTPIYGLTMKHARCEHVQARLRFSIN
pIC50: −log10 of the molar value.
VALUE KIND: pIC50

Measured pIC50 (Cytochrome P450 1A2 (Homo sapiens)), entry N#Cc1cc(-c2ccc(C(=O)O)c(O)c2)c2oc(F)cc2c1 : < 4.30

Reference for the values: ChEMBL document CHEMBL5584307
